Source listed as patent US11566007B2.

study_target: KRAS WT (Homo sapiens (Human), UniProt P01116+P62937)
Sequence (P01116-2 other isoform, or with tags, fused parts or gaps): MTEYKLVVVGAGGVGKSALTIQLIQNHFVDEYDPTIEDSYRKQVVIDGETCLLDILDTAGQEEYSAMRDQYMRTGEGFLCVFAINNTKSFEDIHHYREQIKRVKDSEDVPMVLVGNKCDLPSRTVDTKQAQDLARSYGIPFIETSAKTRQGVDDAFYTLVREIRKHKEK
Sequence (P62937 whole entry): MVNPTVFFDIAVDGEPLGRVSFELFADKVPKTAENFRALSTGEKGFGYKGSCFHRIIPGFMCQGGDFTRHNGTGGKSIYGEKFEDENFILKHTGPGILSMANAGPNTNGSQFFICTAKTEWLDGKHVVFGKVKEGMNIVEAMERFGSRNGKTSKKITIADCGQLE
assay_protocol: Ras-Raf (BRAF RBD) disruption / FRET / MOA assay, KRAS WT
Format: biochemical
run_conditions: read-out: IC50* KRAS WT FRET data
measured_metric: IC50

- compound: "C=CC(=O)N1CC2(CCN(C(=O)N(C)[C@H](C(=O)N[C@H]3Cc4cccc(c4)-c4ccc5c(c4)c(c(-c4cccnc4[C@H](C)OC)n5CC)CC(C)(C)COC(=O)[C@@H]4CCCN(N4)C3=O)C(C)C)CC2)C1 (atropisomer, axis not shown) [Example A680]"
  IC50: "100 to 1000 nM"
- compound: "C=CC(=O)N1CC[C@H](C(=O)N(C)[C@H](C(=O)N[C@H]2Cc3ncc(n3C)-c3ccc4c(c3)c(c(-c3cccnc3[C@H](C)OC)n4CC)CC(C)(C)COC(=O)[C@@H]3CCCN(N3)C2=O)C(C)C)C1 (atropisomer, axis not shown) [Example A276]"
  IC50: "> 10000 nM"
- compound: "C=CC(=O)N(C)[C@@H]1C[C@H]1N(C)C(=O)N(C)[C@H](C(=O)N[C@H]1Cc2nc(cs2)-c2ccc3c(c2)c(c(-c2cccnc2[C@H](C)OC)n3CC)CC(C)(C)COC(=O)[C@@H]2CCCN(N2)C1=O)C(C)C (atropisomer, axis not shown) [Example A739]"
  IC50: "100 to 1000 nM"

Now turn to the next compound.
Look up IC50: CCn1c(-c2cccnc2[C@H](C)OC)c2c3cc(ccc31)-c1csc(n1)C[C@H](NC(=O)C[C@@H]1COC3(CN(C(=O)C#CC(C)(C)N(C)C)C3)O1)C(=O)N1CCC[C@H](N1)C(=O)OCC(C)(C)C2 (atropisomer, axis not shown) [Example A691]
1000 to 10000 nM
